- Test: HCl pH dependent solubility profile study
- Assay type: physicochemical
- Measurement setup: thermodynamic from solid; Water; end pH 2.62
Measured property: solubility (µg/mL)
Give bare numbers, in µg/mL.

Given N#CCC1CCN(c2nc(Nc3ccc(N4CCC(O)CC4)cc3)c3c(=O)[nH]ncc3n2)CC1 , state its recorded solubility. 941

====

- Test: HCl solubility profile in organic solvents
- Type: physicochemical
- Measurement setup: IPA, organic solvent or mixture
Measured property: solubility (µg/mL)
Answers are plain numbers, in µg/mL.

Given N#CCC1CCN(c2nc(Nc3ccc(N4CCC(O)CC4)cc3)c3c(=O)[nH]ncc3n2)CC1 , state its recorded solubility. 462

====

- Test: Phase 1b study in atopic dermatitis: pharmacokinetics
- Format: in vivo, human
- Measurement setup: human, plasma; oral, day 15, 20, 40 and 80 mg
Measured property: Tmax

Given N#CCC1CCN(c2nc(Nc3ccc(N4CCC(O)CC4)cc3)c3c(=O)[nH]ncc3n2)CC1 , state its recorded Tmax. 2 to 4 h

====

- Test: Phase 1/2 trial in solid tumors and hematologic malignancies: pharmacokinetics
- Assay type: in vivo, human
- Measurement setup: human, in vivo; steady-state, 40 mg BID, oral
Measured property: half-life
Units required after the number.

Given N#CCC1CCN(c2nc(Nc3ccc(N4CCC(O)CC4)cc3)c3c(=O)[nH]ncc3n2)CC1 [Compound 1] , state its recorded half-life. 18 h

====

- Test: HCl pH dependent solubility profile study
- Format: physicochemical
- Measurement setup: aqueous buffer, thermodynamic from solid; pH 5.5 Acetate Buffer; initial pH 5.52, end pH 5.12
Measured property: solubility (µg/mL)
One number for each entry, in µg/mL.

Given N#CCC1CCN(c2nc(Nc3ccc(N4CCC(O)CC4)cc3)c3c(=O)[nH]ncc3n2)CC1 , state its recorded solubility. 1

====

- Test: HCl solubility profile in organic solvents
- Format: physicochemical
- Measurement setup: MeOH, organic solvent or mixture
Measured property: solubility
Units required after the number.

Given N#CCC1CCN(c2nc(Nc3ccc(N4CCC(O)CC4)cc3)c3c(=O)[nH]ncc3n2)CC1 [Compound 1] , state its recorded solubility. 4440 µg/mL

====

- Test: Phase 1b study in atopic dermatitis: pharmacokinetics
- Type: in vivo, human
- Measurement setup: human, plasma; oral, day 15, 20, 40 and 80 mg
Measured property: half-life

Given N#CCC1CCN(c2nc(Nc3ccc(N4CCC(O)CC4)cc3)c3c(=O)[nH]ncc3n2)CC1 [Compound 1] , state its recorded half-life. 10 to 14 h

====

- Test: HCl pH dependent solubility profile study
- Format: physicochemical
- Measurement setup: aqueous buffer, thermodynamic from solid; pH 4.5 Acetate Buffer; initial pH 4.50, end pH 4.56
Measured property: solubility (µg/mL)
Answers are plain numbers, in µg/mL.

Given N#CCC1CCN(c2nc(Nc3ccc(N4CCC(O)CC4)cc3)c3c(=O)[nH]ncc3n2)CC1 , state its recorded solubility. 2.9

====

- Test: HCl pH dependent solubility profile study
- Assay type: physicochemical
- Measurement setup: simulated gastric fluid, thermodynamic from solid; 0.1N HCl; end pH 1.23
Measured property: solubility (mg/mL)
Give bare numbers, in mg/mL.

Given N#CCC1CCN(c2nc(Nc3ccc(N4CCC(O)CC4)cc3)c3c(=O)[nH]ncc3n2)CC1 , state its recorded solubility. 10.8
